Sourced from the supplement of paper PMC10567573

Attribute: protein stability index
B1: PTPN9 (parent)
chain: IDFLRVVRNQQSLAVSNMGARSKG

Variants of: B1
ASSAY_NAME: protein stability index of a GFP-peptide fusion (GPS, HEK-293T) (PSI 1-6); higher = more stable;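 also: lentivirally expressed fusions sorted by FACS into six bins by GFP to DsRed ratio, PSI derived from sequencing read proportions per bin multiplied by bin number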
CONDITION_NOTES: c terminus: a fixed tail appended
PROPERTY_LABEL: protein stability index

>>> recorded_result("Q10K")
2.27
>>> recorded_result("Q11D")
2.57
>>> recorded_result("M18E")
3.28
>>> recorded_result("R8E")
3
>>> recorded_result("F3A")
3.55
>>> recorded_result("V6R")
2.38
>>> recorded_result("N17S")
2.74
>>> recorded_result("A20P")
2.57
>>> recorded_result("L13H")
2.45
>>> recorded_result("Q10Y")
2.35
>>> recorded_result("N17C")
2.1
>>> recorded_result("A20L")
2.21
>>> recorded_result("N17Q")
2.42
>>> recorded_result("N9K")
2.58
>>> recorded_result("L13D")
3.08
>>> recorded_result("N17R")
2.45
>>> recorded_result("Q10C")
1.89
>>> recorded_result("S16F")
2.31
>>> recorded_result("R5P")
3.73
>>> recorded_result("D2W")
2.16
>>> recorded_result("V15R")
2.31
>>> recorded_result("I1K")
3.59
>>> recorded_result("K23F")
1.51
>>> recorded_result("S22H")
2.55
>>> recorded_result("L13Q")
3.3
>>> recorded_result("I1R")
3.35
>>> recorded_result("N9T")
2.28
>>> recorded_result("D2E")
2.54
>>> recorded_result("A14I")
1.8
>>> recorded_result("L13E")
3.58
>>> recorded_result("L13M")
2.51
>>> recorded_result("A20I")
1.99
>>> recorded_result("V7I")
2.41
>>> recorded_result("K23G")
1.96
>>> recorded_result("Q10N")
2.39
>>> recorded_result("Q11M")
2.1
>>> recorded_result("L13P")
2.96
>>> recorded_result("S12I")
1.99
>>> recorded_result("A14S")
2.23
>>> recorded_result("Q11Y")
2.12
>>> recorded_result("L13N")
3.2
>>> recorded_result("N9P")
2.78
>>> recorded_result("N9C")
1.96
>>> recorded_result("R8Q")
2.32
>>> recorded_result("L13K")
2.75
>>> recorded_result("L4E")
4.22
>>> recorded_result("G24H")
2.27
>>> recorded_result("I1F")
2.75
>>> recorded_result("V6N")
3.35
>>> recorded_result("R5E")
3.47
>>> recorded_result("S12V")
2.34
>>> recorded_result("Q11P")
2.37
>>> recorded_result("A20F")
2.1
>>> recorded_result("R21I")
2.14
>>> recorded_result("N17A")
2.7
>>> recorded_result("A20C")
2.6
>>> recorded_result("R21M")
1.77
>>> recorded_result("G19Y")
2.16
